system: T1, human TMEM106B (human, UniProt Q9NUM4 2-274)
T1 construct: Full-length, on transiently transfected HEK293 cells, or natively expressed on HeLa, U251 and A549 cells; also called huTMEM106B; huTMEM
assayName: FACS HEK+huTMEM, 1.0 ug/ml
observationType: MFI
Answers are plain numbers.

1) anti-TMEM106B antibody TM-30 (antibody, V domains shown, mouse IgG from hybridoma) VH: QVQLQQSGPELVKPGASVKLSCKASDNTFTNYDVNWVRQRPGQGLEWIGWIYPRDGTTIYNEKFKGRATLTVDTSSSTAYMELHSLTSEDSAVFFCARTLPQAMDYWGQGTSVTVSS VL: DVLMTQSPLSLPVSLGDQVSISCRSSQTIVHRNGNTYLEWYLQKPGQSPKLLIYKVSNRFSGVPDRFSGSGSGTDFTLKISRVEAEDLGVYYCFQGSHLPWTFGGGTKLEIK; 63500

With those in mind, consider the next binder.
For record anti-TMEM106B antibody TM-45 (antibody, V domains shown) VH: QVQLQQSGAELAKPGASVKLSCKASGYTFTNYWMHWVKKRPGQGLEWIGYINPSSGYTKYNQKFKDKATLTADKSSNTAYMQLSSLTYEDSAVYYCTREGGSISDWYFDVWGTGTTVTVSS VL: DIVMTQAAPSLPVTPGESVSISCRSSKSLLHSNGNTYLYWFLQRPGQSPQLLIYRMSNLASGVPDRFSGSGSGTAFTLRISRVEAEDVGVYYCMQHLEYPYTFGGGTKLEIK the listed MFI is 57600

These data points were gathered from patent US20230303681A1.
